Just for reference, patent US11584709B2 is where these values come from.

molecular target: bradykinin receptors B1 (BRDKB1) (Homo sapiens); experiment: Activity of bradykinin receptor BRDKB1, intracellular calcium, CHO cells; conditions: antagonist, LysdesArg9-BK agonist (3 nM)
Sequence (P46663 whole entry): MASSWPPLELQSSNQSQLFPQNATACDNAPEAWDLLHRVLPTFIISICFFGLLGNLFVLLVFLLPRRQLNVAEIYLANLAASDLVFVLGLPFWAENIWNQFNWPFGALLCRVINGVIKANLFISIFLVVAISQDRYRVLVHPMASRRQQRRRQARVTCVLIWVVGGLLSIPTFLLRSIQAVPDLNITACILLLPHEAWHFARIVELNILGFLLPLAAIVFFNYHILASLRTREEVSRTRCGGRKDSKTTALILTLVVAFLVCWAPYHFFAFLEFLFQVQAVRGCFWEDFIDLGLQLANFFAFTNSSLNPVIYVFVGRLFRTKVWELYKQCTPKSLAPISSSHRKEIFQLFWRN
measured property: IC50 (µM)
Give bare numbers, in µM.

Given the entry O=C(Cc1ccc(O)cc1)N[C@@H](Cc1ccccc1)C(=O)OCc1ccccc1 , report its measured IC50.
3.7

----------
target: human recombinant cathepsin S (Homo sapiens, UniProt P25774); experiment: Effect on the enzymatic activity of cathepsin S; conditions: inhibitor; preincubated 15 minutes at 37° C.; substrate Z-Phe-Arg-AMC (6 μM)
Sequence (P25774 115-331): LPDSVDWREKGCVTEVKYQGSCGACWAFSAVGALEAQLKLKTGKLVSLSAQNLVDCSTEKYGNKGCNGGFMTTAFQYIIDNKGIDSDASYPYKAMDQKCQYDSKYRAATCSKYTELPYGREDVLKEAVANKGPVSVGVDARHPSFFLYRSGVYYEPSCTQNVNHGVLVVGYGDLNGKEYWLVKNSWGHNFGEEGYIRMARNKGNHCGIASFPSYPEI
measured property: pIC50
Answers are plain numbers, as −log10 of the molar value.

Given the entry O=C(Cc1ccc(O)cc1)N[C@@H](Cc1ccccc1)C(=O)OCc1ccccc1 , report its measured pIC50.
5.17

----------
molecular target: prokineticin receptor type 1 (PK1) (Homo sapiens); assay: Activity of prokineticin receptors type 1 (PK1), intracellular calcium, HEK-293 cells; settings: antagonist, PK1 agonist (3 nM)
Sequence (Q8TCW9 whole entry): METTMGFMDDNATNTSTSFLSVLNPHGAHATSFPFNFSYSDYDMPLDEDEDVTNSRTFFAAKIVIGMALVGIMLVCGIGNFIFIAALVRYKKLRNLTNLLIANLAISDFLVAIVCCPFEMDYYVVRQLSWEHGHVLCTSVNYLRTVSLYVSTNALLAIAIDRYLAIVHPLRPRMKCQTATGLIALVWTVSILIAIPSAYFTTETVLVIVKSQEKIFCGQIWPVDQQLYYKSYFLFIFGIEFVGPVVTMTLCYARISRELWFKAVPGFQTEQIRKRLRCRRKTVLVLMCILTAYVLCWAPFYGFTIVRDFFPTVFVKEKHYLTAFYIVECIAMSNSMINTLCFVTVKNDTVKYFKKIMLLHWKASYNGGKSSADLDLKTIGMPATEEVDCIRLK
measured property: IC50 (µM)
One number for each entry, in µM.

Given the entry O=C(Cc1ccc(O)cc1)N[C@@H](Cc1ccccc1)C(=O)OCc1ccccc1 [Compound 1] , report its measured IC50.
5.7

----------
target: UniProt:Q8NFJ6; test: Activity of prokineticin receptors type 2 (PK2), intracellular calcium, HEK-293 cells; conditions: antagonist, PK2 agonist (2 nM)
Sequence (Q8NFJ6 whole entry): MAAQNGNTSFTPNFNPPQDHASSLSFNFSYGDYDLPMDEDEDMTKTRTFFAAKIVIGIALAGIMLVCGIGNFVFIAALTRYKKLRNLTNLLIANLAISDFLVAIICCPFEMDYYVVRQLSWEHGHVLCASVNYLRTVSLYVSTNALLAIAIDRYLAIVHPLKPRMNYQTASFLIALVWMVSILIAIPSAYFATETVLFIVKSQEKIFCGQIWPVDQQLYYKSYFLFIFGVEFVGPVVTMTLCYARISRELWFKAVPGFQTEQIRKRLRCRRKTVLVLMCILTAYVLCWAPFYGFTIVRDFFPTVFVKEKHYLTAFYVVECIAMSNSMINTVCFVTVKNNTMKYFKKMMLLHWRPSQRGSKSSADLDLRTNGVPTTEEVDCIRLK
measured property: IC50
The reply should read as a number followed by its unit.

Given the entry O=C(Cc1ccc(O)cc1)N[C@@H](Cc1ccccc1)C(=O)OCc1ccccc1 [Compound 1] , report its measured IC50.
5.4 µM

----------
biological target: cannabinoid receptor type 1 (CB1R) (Homo sapiens, UniProt P21554); experiment: Activity of cannabinoid receptor type 1, CHO cells expressing CB1R; conditions: agonist, control CP55940 (30 nM)
Sequence (P21554 whole entry): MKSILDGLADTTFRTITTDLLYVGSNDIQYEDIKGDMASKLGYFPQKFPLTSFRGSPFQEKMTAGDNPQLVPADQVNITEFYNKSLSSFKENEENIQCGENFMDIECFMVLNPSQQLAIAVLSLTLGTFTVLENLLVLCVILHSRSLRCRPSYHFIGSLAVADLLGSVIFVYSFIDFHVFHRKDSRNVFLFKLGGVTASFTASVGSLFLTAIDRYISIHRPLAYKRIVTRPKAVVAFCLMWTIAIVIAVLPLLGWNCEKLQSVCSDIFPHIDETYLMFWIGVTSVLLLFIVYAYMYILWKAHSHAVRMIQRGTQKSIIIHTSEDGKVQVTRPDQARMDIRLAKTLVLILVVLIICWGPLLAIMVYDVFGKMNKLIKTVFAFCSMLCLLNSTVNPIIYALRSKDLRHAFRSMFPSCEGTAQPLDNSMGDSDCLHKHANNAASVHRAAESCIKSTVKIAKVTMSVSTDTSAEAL
measured property: IC50
The reply should read as a number followed by its unit.

Given the entry O=C(Cc1ccc(O)cc1)N[C@@H](Cc1ccccc1)C(=O)OCc1ccccc1 , report its measured IC50.
3.3 µM

----------
molecular target: tachykinin receptor type 1 (NK1R) (Homo sapiens, UniProt P25103); construct: endogenous in cells; host or cells: U373 cells; assay: Activity of tachykinin receptor type 1 (NK1R), intracellular calcium, U373 cells; assay type: cell-based; settings: antagonist, [Sar9, Met(O2)11]-SP (1 nM)
Sequence (P25103 whole entry): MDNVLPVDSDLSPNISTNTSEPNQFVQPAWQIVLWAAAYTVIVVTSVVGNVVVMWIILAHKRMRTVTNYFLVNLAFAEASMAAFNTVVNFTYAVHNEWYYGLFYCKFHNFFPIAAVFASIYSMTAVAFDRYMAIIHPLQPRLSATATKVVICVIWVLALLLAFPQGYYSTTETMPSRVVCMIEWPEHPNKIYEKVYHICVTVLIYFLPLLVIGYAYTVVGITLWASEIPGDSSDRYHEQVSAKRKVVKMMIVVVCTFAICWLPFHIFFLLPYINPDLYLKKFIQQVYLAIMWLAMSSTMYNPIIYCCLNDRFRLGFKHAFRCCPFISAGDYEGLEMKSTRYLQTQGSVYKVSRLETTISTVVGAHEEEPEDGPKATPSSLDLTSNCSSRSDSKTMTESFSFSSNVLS
measured property: IC50 (µM)
Give bare numbers, in µM.

Given the entry O=C(Cc1ccc(O)cc1)N[C@@H](Cc1ccccc1)C(=O)OCc1ccccc1 , report its measured IC50.
4.1
